Test system: H322
PROTOCOL_TEXT: MTT assay, growth inhibition by deguelin or deguelin derivatives
Format: cell-based
MEASUREMENT_SETUP: H322, 0.01 μM, 3 days
Exercise: state measured MTT assay reading, Average for each of the compounds provided.
Answer field: number only, no words.

**Q:** Form field: reported MTT assay reading, Average of C=C(C)[C@H]1Cc2c(ccc3c(=O)c4c(oc23)COc2cc(OC)c(OC)cc2-4)O1 [6a,2a-dehydrorotenone]
**A:** 0.969

**Q:** Form field: reported MTT assay reading, Average of COc1cc2c(cc1OC)[C@]1(O)C(=O)c3ccc4c(c3O[C@@H]1CO2)C=CC(C)(C)O4
**A:** 0.6627

**Q:** Form field: reported MTT assay reading, Average of C=C(C)[C@H]1Cc2c(ccc3c2O[C@@H]2COc4cc(OC)c(OC)cc4[C@@H]2C3=O)O1
**A:** 0.4327

**Q:** Form field: reported MTT assay reading, Average of COc1cc2c(cc1OC)-c1c(oc3c4c(ccc3c1=O)OC(C)(C)C=C4)CO2 [7a,13a-dehydrodeguelin]
**A:** 1.0041
